Values were extracted from paper PMC12040169.

// reported viability at 28.5 h, 10 µM per item
- EXPERIMENTAL PROTOCOL: in vitro
- REPORTED CONDITIONS: human, hela cells, % viability
Value expressed in %; do not type the unit.

Use the examples below as a reference point.
>  <COMPOUND>
CC1(C)CC(=O)c2sc(NC(=O)C3CC3)nc2C1

>  <viability at 28.5 h, 10 µM (%)>
104

$$$$
>  <COMPOUND>
CC1Cc2ccccc2N1c1ncnc2nc[nH]c12 (stereo not shown)

>  <viability at 28.5 h, 10 µM (%)>
66.8

$$$$
>  <COMPOUND>
O=C(/C=C/c1cccnc1)Nc1ccccc1N1CCNCC1 [CBK034136T]

>  <viability at 28.5 h, 10 µM (%)>
102

$$$$

Could you share which viability at 28.5 h, 10 µM value was measured for CCn1c(-c2ccc3c(c2)OCCO3)cnc1SCC(=O)c1cc(C)[nH]c1C ?
89.4

Could you share which viability at 28.5 h, 10 µM value was measured for O=C(O)CCc1nn2c3ccccc3nc2n(-c2ccccc2)c1=O ?
90.6

Could you share which viability at 28.5 h, 10 µM value was measured for COc1cc(C=CC(=O)O)ccc1OCC(=O)NCC(C)C ?
107

Could you share which viability at 28.5 h, 10 µM value was measured for O=S(=O)(Nc1cccc(-c2cnco2)c1)c1ccc(Cl)c(Cl)c1 ?
80.9

Could you share which viability at 28.5 h, 10 µM value was measured for O=C(c1cccs1)N1CCOC(Cn2ccnc2)C1 (stereo not shown) ?
103

Could you share which viability at 28.5 h, 10 µM value was measured for CC1CCN(Cc2ccc(-c3ccc(CNC(=O)c4ccc5c(c4)OC(F)(F)O5)s3)cc2)CC1 ?
107

Could you share which viability at 28.5 h, 10 µM value was measured for O=C1CC2(CCN(S(=O)(=O)c3ccc(F)cc3)CC2)CN1 ?
93.9

---

- EXPERIMENTAL PROTOCOL: in vitro
- REPORTED CONDITIONS: human, hela cells, % viability
OBSERVED PROPERTY: viability at 28.5 h, 10 µM (%)
Value expressed in %; do not type the unit.

Use the examples below as a reference point.
>  <COMPOUND>
CCCNC(=O)Cn1nc(C)n2c(cc3sc(C)cc32)c1=O

>  <viability at 28.5 h, 10 µM (%)>
86.1

$$$$
>  <COMPOUND>
Cc1cc(C)n(-c2cc(C)c3ccccc3n2)n1

>  <viability at 28.5 h, 10 µM (%)>
81.9

$$$$
>  <COMPOUND>
Cn1cc(CCNC(=O)N2CCCN(Cc3cccs3)CC2)cn1

>  <viability at 28.5 h, 10 µM (%)>
89.1

$$$$
>  <COMPOUND>
C[C@@H]1C[C@H](C(F)(F)F)n2nc(C3CCCN3C(=O)C3CC3)cc2N1 (stereo partly shown)

>  <viability at 28.5 h, 10 µM (%)>
90.6

$$$$
>  <COMPOUND>
COc1ccc(CCN2C(=O)CC(C(=O)O)S/C2=N\c2ccccc2)cc1 (stereo not shown)

>  <viability at 28.5 h, 10 µM (%)>
90.6

$$$$
>  <COMPOUND>
Cc1ccc2c(CC(=O)N(C)CCN3CCCCC3)coc2c1

>  <viability at 28.5 h, 10 µM (%)>
80.5

$$$$

Could you share which viability at 28.5 h, 10 µM value was measured for O=C(c1ccncc1)N1CCc2ccccc21 ?
93.7

Could you share which viability at 28.5 h, 10 µM value was measured for CN(C)CCCn1cccc1C=O [CBK261993G] ?
90.3

Could you share which viability at 28.5 h, 10 µM value was measured for O=C(Oc1cccc(NC(=O)c2ccco2)c1)c1cccc(S(=O)(=O)N2CCOCC2)c1 ?
97.2

Could you share which viability at 28.5 h, 10 µM value was measured for CCCC/C=C/c1cnc(N)c(Nc2ccc3[nH]ccc3c2)n1 ?
95.7
